# reported Minimal inhibitory concentration (MIC); entries follow
- System: S. aureus USA300 LAC
- settings: USA300, pH 7.4
Non-standard residues stand in square brackets, D forms with d. Residues, ends and D or L forms follow the SMILES beside them. *: point of attachment. Decanoyl = CCCCCCCCCC(=O)*; Octanoyl = CCCCCCCC(=O)*

Recorded Minimal inhibitory concentration (MIC), per entry:
compound | testResult
CCCCCCCCCC(=O)N[C@@H](CCCCN)C(=O)N[C@@H](CCCNC(=N)N)C(=O)N[C@H](C(=O)N[C@@H](Cc1c[nH]c2ccccc12)C(=O)N[C@@H](CCC(N)=O)C(=O)N[C@@H](CCCNC(=N)N)C(=O)N[C@H](C(=O)N[C@@H](CCCCN)C(N)=O)[C@@H](C)CC)[C@@H](C)CC [Peptide C10-KR8] (Decanoyl-KRIWQRIK-NH2) | 3.1 µM
CCCCCCCC(=O)N[C@H](CCCCN)C(=O)N[C@H](CCCNC(=N)N)C(=O)N[C@@H](C(=O)N[C@H](Cc1c[nH]c2ccccc12)C(=O)N[C@H](CCC(N)=O)C(=O)N[C@H](CCCNC(=N)N)C(=O)N[C@@H](C(=O)N[C@H](CCCCN)C(=O)N[C@H](CC(=O)O)C(=O)N[C@H](Cc1ccccc1)C(N)=O)[C@H](C)CC)[C@H](C)CC [Peptide C8-KR10d] (Octanoyl-[dK][dR][dI][dW][dQ][dR][dI][dK][dD][dF]-NH2; C-terminus assumed) | 3.1 µM
CCCCCCCC(=O)N[C@@H](CCCCN)C(=O)N[C@@H](CCCNC(=N)N)C(=O)N[C@H](C(=O)N[C@@H](Cc1c[nH]c2ccccc12)C(=O)N[C@@H](CCC(N)=O)C(=O)N[C@@H](CCCNC(=N)N)C(=O)N[C@H](C(=O)N[C@@H](CCCCN)C(=O)N[C@@H](CC(=O)O)C(=O)N[C@@H](Cc1ccccc1)C(N)=O)[C@@H](C)CC)[C@@H](C)CC [Peptide C8-KR10] (Octanoyl-KRIWQRIKDF-NH2) | 6.2 µM

The record that follows has no Minimal inhibitory concentration (MIC) shown yet.
Entry CCCCCCCCCC(=O)N[C@H](CCCCN)C(=O)N[C@H](CCCNC(=N)N)C(=O)N[C@@H](C(=O)N[C@H](Cc1c[nH]c2ccccc12)C(=O)N[C@H](CCC(N)=O)C(=O)N[C@H](CCCNC(=N)N)C(=O)N[C@@H](C(=O)N[C@H](CCCCN)C(N)=O)[C@H](C)CC)[C@H](C)CC [Peptide C10-KR8d] (Decanoyl-[dK][dR][dI][dW][dQ][dR][dI][dK]-NH2) , Minimal inhibitory concentration (MIC) reported as 3.1 µM

Values from paper PMC9082781
